biological target: PLCγ1 (Rattus norvegicus, UniProt P10686); construct: made in house; host or cells: E. coli BL21 (DE3); test: Assay of inhibitory activity of compounds against PLCγ1 (hydrolysis of [3H]-phosphatidyl inositol by purified bacterially expressed PLCγ1); type: biochemical; conditions: Table 1; 30° C., pH 7.5, 0.1% deoxycholate; compound included prior to addition of enzyme
Sequence (P10686 with tags, fused parts or gaps limits assumed): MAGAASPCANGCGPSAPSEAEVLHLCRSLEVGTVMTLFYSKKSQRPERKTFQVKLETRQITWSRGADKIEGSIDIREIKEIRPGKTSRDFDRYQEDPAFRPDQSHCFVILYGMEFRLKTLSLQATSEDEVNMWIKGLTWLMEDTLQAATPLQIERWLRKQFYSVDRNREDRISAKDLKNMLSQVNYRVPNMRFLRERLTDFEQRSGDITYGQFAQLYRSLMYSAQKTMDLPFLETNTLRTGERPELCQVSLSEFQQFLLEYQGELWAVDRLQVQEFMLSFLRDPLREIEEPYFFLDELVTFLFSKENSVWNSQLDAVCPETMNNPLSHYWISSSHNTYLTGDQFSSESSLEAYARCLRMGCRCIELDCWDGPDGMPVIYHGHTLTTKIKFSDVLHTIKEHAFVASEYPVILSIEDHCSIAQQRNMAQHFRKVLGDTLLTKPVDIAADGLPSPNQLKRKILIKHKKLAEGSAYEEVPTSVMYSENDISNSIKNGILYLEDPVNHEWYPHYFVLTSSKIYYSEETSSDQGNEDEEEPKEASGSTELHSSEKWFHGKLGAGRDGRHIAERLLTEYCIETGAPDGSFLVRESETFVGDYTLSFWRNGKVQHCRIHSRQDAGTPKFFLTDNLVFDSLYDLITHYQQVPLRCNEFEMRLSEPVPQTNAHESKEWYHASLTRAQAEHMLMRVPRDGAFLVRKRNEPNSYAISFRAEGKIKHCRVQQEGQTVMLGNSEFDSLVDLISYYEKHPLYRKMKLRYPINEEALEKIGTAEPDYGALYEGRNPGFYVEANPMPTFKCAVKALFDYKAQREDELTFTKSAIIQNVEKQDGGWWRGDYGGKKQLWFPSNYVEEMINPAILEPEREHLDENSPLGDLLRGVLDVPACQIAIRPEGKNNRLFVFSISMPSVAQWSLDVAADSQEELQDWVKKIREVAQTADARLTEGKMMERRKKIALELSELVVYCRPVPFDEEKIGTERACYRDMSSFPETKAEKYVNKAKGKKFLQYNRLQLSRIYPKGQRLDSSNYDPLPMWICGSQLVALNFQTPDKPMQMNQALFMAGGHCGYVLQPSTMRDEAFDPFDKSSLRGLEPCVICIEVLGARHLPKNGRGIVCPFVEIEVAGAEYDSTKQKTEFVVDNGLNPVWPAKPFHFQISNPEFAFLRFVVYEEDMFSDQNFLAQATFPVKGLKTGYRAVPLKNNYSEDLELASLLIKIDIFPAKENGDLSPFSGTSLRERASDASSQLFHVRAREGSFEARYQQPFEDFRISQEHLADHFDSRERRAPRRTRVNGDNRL
pIC50: −log10 of the molar value.
MEASURE: pIC50

COMPOUND	TARGET OR TEST SYSTEM	MEASURE	NUMERIC READOUT
COc1ccc(Oc2cccc(C(O)P(=O)(O)O)c2)cc1 (centres unmarked) [drawing 1: R3=H, R4=H, R5=OCH3]	PLCγ1 (Rattus norvegicus, UniProt P10686)	pIC50	5.15
O=P(O)(O)C(O)c1cccc(Oc2ccccc2)c1 (centres unmarked) [drawing 1: R3=H, R4=H, R5=H]	PLCγ1 (Rattus norvegicus, UniProt P10686)	pIC50	3.72
O=P(O)(O)C(O)c1cccc(Oc2cccc(Cl)c2)c1 (centres unmarked) [drawing 1: R3=H, R4=Cl, R5=H]	PLCγ1 (Rattus norvegicus, UniProt P10686)	pIC50	5.00
O=P(O)(O)C(O)c1cccc(Oc2ccc(Cl)cc2)c1 (centres unmarked) [drawing 1: R3=H, R4=H, R5=Cl]	PLCγ1 (Rattus norvegicus, UniProt P10686)	pIC50	4.44
Cc1ccc(Oc2cccc(C(O)P(=O)(O)O)c2)cc1 (centres unmarked) [drawing 1: R3=H, R4=H, R5=CH3]	PLCγ1 (Rattus norvegicus, UniProt P10686)	pIC50	4.89
O=P(O)(O)C(O)c1cccc(Oc2ccccc2Cl)c1 (centres unmarked) [drawing 1: R3=Cl, R4=H, R5=H]	PLCγ1 (Rattus norvegicus, UniProt P10686)	pIC50	4.77
O=P(O)(O)C(O)c1cccc(Oc2ccc(Cl)c(Cl)c2)c1 (centres unmarked) [drawing 1: R3=H, R4=Cl, R5=Cl]	PLCγ1 (Rattus norvegicus, UniProt P10686)	pIC50	4.25
O=P(O)(O)C(O)c1cccc(Oc2ccc(O)cc2)c1 (centres unmarked) [drawing 1: R3=H, R4=H, R5=OH]	PLCγ1 (Rattus norvegicus, UniProt P10686)	pIC50	5.52
